- Procedure Summary: TIMS collisional cross section (CCS, N2) of the lipid ion; higher = larger ion cross section;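 also: lipids from MTBE extraction, five replicate injections per sample, 100 ms TIMS ramp spanning 0.6–1.95 Vs/cm², lipid identity assigned from PASEF MS/MS spectra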
- Conditions: sample type: Human plasma; ion (formula + adduct): [C43H74NO8P-H] 1-; ionization mode: negative; one isomer drawn
Measurement Name: TIMS collisional cross section (Å²)
Note: unit Å² is implicit; provide only the numeric part.

Solved entries (count: 3):
Molecule: CC/C=C\C/C=C\CC(O)/C=C/C=C\C/C=C\C/C=C\CCC(=O)O[C@H](CO/C=C\CCCCCCCCCCCCCC)COP(=O)(O)OCCN (some centres undefined)
Reading: 277.4
--
Molecule: CCCCC/C=C\C/C=C\C/C=C\C/C=C\CCCC(=O)OC[C@H](COP(=O)(O)OCCN)OC(=O)CCCCCCC/C=C\C/C=C\CCCCC
Reading: 275.6
--
Molecule: CC/C=C\C/C=C\C/C=C\C/C=C\C/C=C\CCCC(=O)OC[C@H](COP(=O)(O)OCCN)OC(=O)CCCCCCC/C=C\CCCCCCCC
Reading: 274.5

Consider CC/C=C\C/C=C\C/C=C\C/C=C\C/C=C\C/C=C\CCC(=O)OC(COC(=O)CCCCCCCCCCCCCCC)COP(=O)(O)OCCN (centres undefined) . Its measured TIMS collisional cross section is 275
